Just for reference, PubChem BioAssay AID2315 is where these values come from.

- procedure_summary: A qHTS for Small Molecule Inhibitors of Shiga Toxin; note: 0% is about no effect
- condition_context: Vero cells, Shiga toxin protein synthesis inhibition reporter; at 38.7 µM, stronger effect = higher value
Among all 290,000 compounds or so, about 27,000 (9.3%) were called active. The list comes from a sample in which actives are over-represented; it also holds close analogues and randomly drawn compounds.

>  <compound>
COC(=O)c1c(C)[nH]c(C(=O)NCCc2ccc(S(N)(=O)=O)cc2)c1C

>  <uom>
%

>  <inhibition>
2.99

$$$$
>  <compound>
O=C(Nc1ccccc1F)c1ccc(Cn2cc(Br)cn2)cc1

>  <uom>
%

>  <inhibition>
71.1

$$$$
>  <compound>
CCOCCCN(C)C1CCN(C(=O)c2oc3ccccc3c2NC(=O)COc2cccc(C)c2)CC1

>  <uom>
%

>  <inhibition>
-8.02

$$$$
>  <compound>
Cc1ccc(NC(=O)CN(C)Cc2ccc(F)cc2)c([N+](=O)[O-])c1

>  <uom>
%

>  <inhibition>
19.4

$$$$
>  <compound>
O=C(c1cccc(N2CCCC2=O)c1)N1CCOCC1

>  <uom>
%

>  <inhibition>
20.2

$$$$
>  <compound>
CCOc1cccc(C(=O)Nc2cnn(Cc3ccccc3)c2)c1

>  <uom>
%

>  <inhibition>
17.4

$$$$
>  <compound>
CCOC(=O)C1C(c2ccc(O)cc2)NC(=O)NC1(O)C(F)(F)F (stereo not drawn)

>  <uom>
%

>  <inhibition>
-6.9

$$$$
>  <compound>
CC(C)CCn1c(=O)c2c(nc3n2CCCN3Cc2ccccc2)n(C)c1=O

>  <uom>
%

>  <inhibition>
-11.9

$$$$
>  <compound>
O=C(CN(C(=O)c1nsc(Cl)c1Cl)c1cccc(F)c1)NC1CCCC1

>  <uom>
%

>  <inhibition>
-1.89

$$$$
>  <compound>
CCCNC(=O)NCc1ccc(N2CCCC2=O)cc1

>  <uom>
%

>  <inhibition>
-8.65

$$$$
>  <compound>
Cc1c(Cl)cccc1NC(=O)CCC(=O)N/N=C/c1ccco1

>  <uom>
%

>  <inhibition>
4.7

$$$$
>  <compound>
Cc1ccc(NC(=O)c2oc3ccccc3c2C)c([N+](=O)[O-])c1

>  <uom>
%

>  <inhibition>
46.2

$$$$
>  <compound>
CCc1ccc(NC(=O)C(=O)NNC(=O)c2cccs2)cc1

>  <uom>
%

>  <inhibition>
39.1

$$$$
>  <compound>
CCCN1CCN(C(=O)CCCNC(=O)c2ccc(Cl)cc2)CC1

>  <uom>
%

>  <inhibition>
-8.41

$$$$
>  <compound>
CCOc1cc(/C=C2/C(=N)N3OC(C)=CC3=NC2=O)ccc1OC

>  <uom>
%

>  <inhibition>
-19.9

$$$$
>  <compound>
CC(C)S(=O)(=O)c1csc(NC(=O)Nc2ccc(Cl)cc2)c1Cl

>  <uom>
%

>  <inhibition>
37.4

$$$$
>  <compound>
CN(C)CCN(C(=O)C1CCCCC1)c1nc2cc3c(cc2s1)OCO3

>  <uom>
%

>  <inhibition>
-7.68

$$$$
>  <compound>
Cc1cccc(NC(=S)N2CCC(c3nc4ccccc4s3)CC2)c1

>  <uom>
%

>  <inhibition>
-9.34

$$$$
>  <compound>
CCc1nonc1NC(=O)c1oc2ccc(Cl)cc2c1C

>  <uom>
%

>  <inhibition>
1.67

$$$$
>  <compound>
CCOc1ccc(NC(=O)N(CC(C)C)CC(C)C)cc1

>  <uom>
%

>  <inhibition>
26.1

$$$$
>  <compound>
CC1CCN(S(=O)(=O)c2ccc3c(c2)n(C)c(=O)n3C)CC1

>  <uom>
%

>  <inhibition>
-5.36

$$$$
>  <compound>
CC1CCCC(NC(=O)CN2CCN(Cc3ccc(Cl)cc3)C2=O)C1C (stereo not drawn)

>  <uom>
%

>  <inhibition>
-12.5

$$$$
>  <compound>
Cc1nc2ccc(NC(=S)N3CCC(C)CC3)cc2nc1C

>  <uom>
%

>  <inhibition>
33.9

$$$$
>  <compound>
Cc1cc(C)nc(SCc2cn3c(C)cc(C)nc3n2)n1

>  <uom>
%

>  <inhibition>
2.5

$$$$
>  <compound>
O=S(=O)(c1ccc(Br)cc1)N1CCC(c2nc3ccccc3[nH]2)CC1

>  <uom>
%

>  <inhibition>
20.1

$$$$
>  <compound>
CC(=O)c1c(C)[nH]c(C(=O)OCC(=O)NCCC(C)C)c1C

>  <uom>
%

>  <inhibition>
-4.2

$$$$
>  <compound>
CC(C)NS(=O)(=O)c1ccc(OCC(=O)NC2CCCCCC2)cc1

>  <uom>
%

>  <inhibition>
-16.9

$$$$
>  <compound>
O=C(c1n[nH]c2c1CCC2)N1CCCC(Nc2cccc(F)c2)C1 (stereo not drawn)

>  <uom>
%

>  <inhibition>
-2

$$$$
>  <compound>
NS(=O)(=O)c1ccc(NC(=S)NNC(=O)c2cccs2)cc1

>  <uom>
%

>  <inhibition>
107

$$$$
>  <compound>
COc1ccc(NC(=O)c2cc(-c3cc(OC)c(OC)c(OC)c3)nc3ccccc23)c(OC)c1

>  <uom>
%

>  <inhibition>
15.1

$$$$
>  <compound>
COC(=O)C1=CN(c2ccc(F)c(F)c2)C=C(C(=O)OC)C1c1ccc([N+](=O)[O-])cc1

>  <uom>
%

>  <inhibition>
3.77

$$$$
>  <compound>
O=C(COC(=O)c1ccc(Cl)nc1)NCc1cccs1

>  <uom>
%

>  <inhibition>
-3.54

$$$$
>  <compound>
COc1ccc(N2C(=O)NC(NS(=O)(=O)c3ccc(Cl)cc3)(C(F)(F)F)C2=O)cc1 (stereo not drawn)

>  <uom>
%

>  <inhibition>
-3.26

$$$$
>  <compound>
COc1ccc(/C=C/C(=O)c2ccc(OC)cc2O)cc1

>  <uom>
%

>  <inhibition>
42.2

$$$$
>  <compound>
Cc1ccc(CNC(=O)Cn2cnc(S(=O)(=O)N3CCCCC3)c2)o1

>  <uom>
%

>  <inhibition>
0.422

$$$$
>  <compound>
O=C(Nc1ccc(S(=O)(=O)NCC2CCCO2)cc1)c1ccc(F)cc1 (stereo not drawn)

>  <uom>
%

>  <inhibition>
-1.55

$$$$
>  <compound>
COc1ccc(C(=O)/C=C/c2cccnc2)c(OC)c1

>  <uom>
%

>  <inhibition>
0.985

$$$$
>  <compound>
NS(=O)(=O)c1ccc(NC(=S)NC(=O)c2cccnc2)cc1

>  <uom>
%

>  <inhibition>
-16

$$$$
>  <compound>
O=C(COC(=O)c1cccs1)NCc1cccs1

>  <uom>
%

>  <inhibition>
40

$$$$
>  <compound>
Nc1nonc1-n1nnc(C(=O)N/N=C/C2CCCCC2)c1-c1ccccc1

>  <uom>
%

>  <inhibition>
-3.16

$$$$
>  <compound>
CCCCOC(=O)c1[nH]c(C)c(C(=O)OC)c1C

>  <uom>
%

>  <inhibition>
94.4

$$$$
>  <compound>
CC1CCCC(NC(=O)c2cccc(N3CCCC3=O)c2)C1C (stereo not drawn)

>  <uom>
%

>  <inhibition>
87.5

$$$$
>  <compound>
CCn1c(SCC(=O)NC2CC2)nnc1-c1ccccn1

>  <uom>
%

>  <inhibition>
-11.7

$$$$
